biological target: HIV-1 PR (Human immunodeficiency virus type 1 group M subtype B, UniProt P04585); experiment: HIV-protease inhibitory activity assay (FRET peptide substrate); conditions: Test Example 1
Listed next: entries and their corresponding pIC50.
Give only the number. pIC50 is defined as minus log10 of concentration in molar units.

Illustrative cases are given below, each with its answer.
- COc1ccc(S(=O)(=O)N(CC(C)C)CC(O)C(Cc2ccc(NCCCc3sc4c(c3C(=O)O)CC(C)(C)CC4)cc2)NC(=O)OC2COC3(C)OCCC23)cc1 (centres unmarked) [Compound I-335]: 8.74
- COc1ccc(S(=O)(=O)N(CC(C)C)CC(O)C(Cc2ccc(N(C)Cc3cnc4sccc4c3-c3sc4c(c3C(=O)O)CC(C)(C)CC4)cc2)NC(=O)OC2COC3(C)OCCC23)cc1 (centres unmarked) [Compound I-702]: 8.67
- CC(C)CN(C[C@@H](O)[C@H](Cc1ccc(OCc2ccc(-c3ccc(F)cc3F)cc2C(=O)O)cc1)NC(=O)O[C@H]1CO[C@@]2(C)OCC[C@@H]12)S(=O)(=O)c1ccc2ncsc2c1 [Compound I-18]: 8.79
- COc1ccc(S(=O)(=O)N(CC(C)C)CC(O)C(Cc2ccc(NCC3=C(c4sc5c(c4C(=O)O)CC(C)(C)CC5)CCC(F)(F)C3)cc2)NC(=O)OC2COC3OCCC23)cc1 (centres unmarked) [Compound I-880]: 8.33
- COc1ccc(S(=O)(=O)N(CC(C)C)CC(O)C(Cc2ccc(NCc3cnc(-c4sc5c(c4C(=O)O)CC(C)(C)CC5)c(C)c3)cc2)NC(=O)OC2COC3(C)OCCC23)cc1 (centres unmarked) [Compound I-559]: 8.73
- COc1ccc(S(=O)(=O)N(CC(C)C)CC(O)C(Cc2ccc(OCc3ccccc3-c3oc4c(c3C(=O)O)CCCC4)cc2)NC(=O)OC2COC3(C)OCCC23)cc1 (centres unmarked) [Compound I-130]: 8.95
- CC(C)CN(CC(O)C(Cc1ccc(OCc2ccccc2-c2sc3c(c2C(=O)O)CC(C)(C)CC3)cc1)NC(=O)OC1COC2(C)OCCC12)S(=O)(=O)c1ccc(N)cc1 (centres unmarked) [Compound I-52]: 8.63
- COc1ccc(S(=O)(=O)N(CC2CCCC2)CC(O)C(Cc2ccc(NCc3cc(C(F)(F)F)ccc3-c3sc4c(c3C(=O)O)CC(C)(C)CC4)cc2)NC(=O)OC2COC3OCCC23)cc1 (centres unmarked) [Compound I-870]: 8.03
- COc1ccc(S(=O)(=O)N(CC(C)C)CC(O)C(Cc2ccc(N(C)Cc3ccccc3-c3sc(N(C4CCCCC4)C4CCCCC4)nc3C(=O)O)cc2)NC(=O)OC2COC3(C)OCCC23)cc1 (centres unmarked) [Compound I-471]: 8.33
- COc1ccc(S(=O)(=O)N(CC(C)C)CC(O)C(Cc2ccc(N(C)Cc3cc(C(F)(F)F)ccc3-c3sc4c(c3C(=O)O)CC(C)(C)CC4)cc2)NC(=O)OC2COC3(C)OCCC23)cc1 (centres unmarked) [Compound I-451]: 8.02

input: Param readout = pIC50; param system = HIV-1 PR (Human immunodeficiency virus type 1 group M subtype B, UniProt P04585); param query = COc1ccc(S(=O)(=O)N(CC(C)C)CC(O)C(Cc2ccc(N(Cc3ccccc3-c3sc4c(c3C(=O)O)CC(C)(C)CC4)C(C)=O)cc2)NC(=O)OC2COC3(C)OCCC23)cc1 (centres unmarked) [Compound I-339] ; response: value
output: 8.74
